Biological target: AChE from electric eel (Electrophorus electricus) (Electrophorus electricus)
Construct: purchased Sigma, St. Louis, MO, USA
Sequence (O42275 24-633): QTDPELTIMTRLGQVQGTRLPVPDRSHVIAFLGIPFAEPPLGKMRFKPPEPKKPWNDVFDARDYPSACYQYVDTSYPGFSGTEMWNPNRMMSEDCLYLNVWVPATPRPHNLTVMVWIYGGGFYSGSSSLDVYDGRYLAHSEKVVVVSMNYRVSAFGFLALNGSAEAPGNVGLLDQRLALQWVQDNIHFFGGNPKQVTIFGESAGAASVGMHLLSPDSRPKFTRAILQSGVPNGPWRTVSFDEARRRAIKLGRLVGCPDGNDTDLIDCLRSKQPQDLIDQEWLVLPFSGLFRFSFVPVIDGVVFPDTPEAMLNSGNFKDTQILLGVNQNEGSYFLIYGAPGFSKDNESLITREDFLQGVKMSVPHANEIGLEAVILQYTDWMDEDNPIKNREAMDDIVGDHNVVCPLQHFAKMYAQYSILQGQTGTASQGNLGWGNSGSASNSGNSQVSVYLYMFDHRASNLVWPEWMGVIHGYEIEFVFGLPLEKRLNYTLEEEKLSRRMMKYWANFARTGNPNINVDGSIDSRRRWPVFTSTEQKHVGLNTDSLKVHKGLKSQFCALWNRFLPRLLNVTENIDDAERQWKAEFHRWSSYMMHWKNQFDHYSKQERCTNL
Test: In vitro AChE inhibition, modified Ellman's method
Format: biochemical
Conditions: mean ± SD, n = 3; electric eel AChE, 25 °C, pH 7.4; read-out: IC50 AChE
result-type: IC50 (µM)
Write the answer as a number in µM, unit excluded.

- smiles-data: "O=C(Nc1ccc(C(=O)Nc2cc(C(F)(F)F)cc(C(F)(F)F)c2)c(O)c1)OCc1ccccc1"
  IC50 (µM): 59.4

Readout IC50 for O=C(Nc1ccc(C(=O)Nc2ccccc2OC(F)(F)F)c(O)c1)OCc1ccccc1 , test system AChE from electric eel (Electrophorus electricus) (Electrophorus electricus), was 36.1

---

Assay: Determination of lipophilicity by RP-HPLC (capacity factor k)
Type: physicochemical
Conditions: C18, isocratic MeOH 72%/H2O 28%, 40 °C
result-type: log k
Lab note: write the figure by itself, no unit.

Some entries whose results are on file:
- smiles-data: "O=C(Nc1ccc(C(=O)Nc2ccc(F)cc2)c(O)c1)OCc1ccccc1"
  result-type: "log k"
  reported-measurement: 0.3924
- smiles-data: "O=C(Nc1ccc(C(=O)Nc2cc(C(F)(F)F)cc(C(F)(F)F)c2)c(O)c1)OCc1ccccc1"
  result-type: "log k"
  reported-measurement: 0.9667
- smiles-data: "O=C(Nc1ccc(C(=O)Nc2cccc(Cl)c2Cl)c(O)c1)OCc1ccccc1"
  result-type: "log k"
  reported-measurement: 0.5497
- smiles-data: "O=C(Nc1ccc(C(=O)Nc2ccc(Cl)c(Cl)c2)c(O)c1)OCc1ccccc1"
  result-type: "log k"
  reported-measurement: 0.6664
- smiles-data: "O=C(Nc1ccc(C(=O)Nc2cccc(Cl)c2)c(O)c1)OCc1ccccc1"
  result-type: "log k"
  reported-measurement: 0.6411

Summary for this compound, O=C(Nc1ccc(C(=O)Nc2cccc(C(F)(F)F)c2)c(O)c1)OCc1ccccc1 : log k is 0.4477

Summary for this compound, O=C(Nc1ccc(C(=O)Nc2ccccc2F)c(O)c1)OCc1ccccc1 : log k is 0.3577

Summary for this compound, O=C(Nc1ccc(C(=O)Nc2ccccc2OC(F)(F)F)c(O)c1)OCc1ccccc1 : log k is 0.6227

Summary for this compound, O=C(Nc1ccc(C(=O)Nc2cccc(F)c2)c(O)c1)OCc1ccccc1 : log k is 0.2303

Summary for this compound, O=C(Nc1ccc(C(=O)Nc2ccc(Br)cc2Br)c(O)c1)OCc1ccccc1 : log k is 0.7366

Summary for this compound, O=C(Nc1ccc(C(=O)Nc2c(F)cc(F)cc2F)c(O)c1)OCc1ccccc1 : log k is -0.0131

Summary for this compound, COc1ccc(NC(=O)c2ccc(NC(=O)OCc3ccccc3)cc2O)cc1 : log k is 0.1176

Summary for this compound, O=C(Nc1ccc(C(=O)Nc2c(Cl)cc(Cl)cc2Cl)c(O)c1)OCc1ccccc1 : log k is 0.3679

Summary for this compound, COc1ccccc1NC(=O)c1ccc(NC(=O)OCc2ccccc2)cc1O : log k is 0.3368

---

Experiment: In vitro cell viability assay (CCK-8)
Assay type: cell-based
Conditions: human, THP-1 cells (human monocytic leukemia), read-out: relative cell viability
// reported viability at 24 h, 30 µM per item

- smiles-data: "COc1ccccc1NC(=O)c1ccc(NC(=O)OCc2ccccc2)cc1O"
  viability at 24 h, 30 µM: "~100%"

Okay, next one:
Summary for this compound, O=C(Nc1ccc(C(=O)Nc2c(F)cc(F)cc2F)c(O)c1)OCc1ccccc1 : viability at 24 h, 30 µM is ~100%

---

Experiment: Determination of lipophilicity by RP-HPLC (capacity factor k)
Type: physicochemical
Details: C18, isocratic MeOH 72%/H2O 28%, 40 °C
result-type: log k
Lab note: write the figure by itself, no unit.

Summary for this compound, O=C(Nc1ccc(C(=O)Nc2cc(F)ccc2F)c(O)c1)OCc1ccccc1 [Compound 18] : log k is 0.4012

Summary for this compound, O=C(Nc1ccc(C(=O)Nc2c(F)cccc2F)c(O)c1)OCc1ccccc1 [Compound 19] : log k is -0.1205

Summary for this compound, O=C(Nc1ccc(C(=O)Nc2cc(F)cc(F)c2)c(O)c1)OCc1ccccc1 [Compound 20] : log k is 0.4072

Summary for this compound, O=C(Nc1ccc(C(=O)Nc2ccccc2)c(O)c1)OCc1ccccc1 [Compound 1] : log k is 0.1160

Summary for this compound, O=C(Nc1ccc(C(=O)Nc2ccccc2Cl)c(O)c1)OCc1ccccc1 [Compound 9] : log k is 0.5188

---

Target: BChE from equine serum (Equus caballus, UniProt P81908)
Construct: BChE from equine serum; purchased Sigma, St. Louis, MO, USA; host or cells: equine serum
Sequence (P81908 whole entry): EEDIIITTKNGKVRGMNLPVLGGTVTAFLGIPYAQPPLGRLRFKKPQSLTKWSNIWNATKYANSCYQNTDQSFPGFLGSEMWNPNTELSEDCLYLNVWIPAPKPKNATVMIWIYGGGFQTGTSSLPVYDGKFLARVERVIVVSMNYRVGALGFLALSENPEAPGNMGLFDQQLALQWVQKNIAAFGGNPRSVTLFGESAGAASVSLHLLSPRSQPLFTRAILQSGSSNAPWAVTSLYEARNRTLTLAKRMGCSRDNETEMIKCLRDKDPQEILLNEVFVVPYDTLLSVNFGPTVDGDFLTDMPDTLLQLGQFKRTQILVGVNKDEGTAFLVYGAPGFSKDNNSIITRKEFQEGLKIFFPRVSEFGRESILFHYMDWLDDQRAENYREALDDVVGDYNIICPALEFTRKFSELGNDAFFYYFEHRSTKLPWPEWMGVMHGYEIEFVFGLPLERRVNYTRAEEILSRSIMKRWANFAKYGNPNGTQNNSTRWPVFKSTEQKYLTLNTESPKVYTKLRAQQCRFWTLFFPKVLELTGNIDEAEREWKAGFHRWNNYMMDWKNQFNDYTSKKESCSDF
Experiment: In vitro BChE inhibition, modified Ellman's method
Type: biochemical
// reported pIC50 per item
Lab note: report pIC50 as minus log10 of the concentration in molar units, number only.

Some entries whose results are on file:
- compound: "O=C(Nc1ccc(C(=O)Nc2cccc(F)c2)c(O)c1)OCc1ccccc1"
  pIC50: 3.70
- compound: "O=C(Nc1ccc(C(=O)Nc2ccc(F)cc2)c(O)c1)OCc1ccccc1"
  pIC50: 3.98
- compound: "O=C(Nc1ccc(C(=O)Nc2c(Br)cc(Br)cc2Br)c(O)c1)OCc1ccccc1"
  pIC50: 4.25
- compound: "O=C(Nc1ccc(C(=O)Nc2ccccc2C(F)(F)F)c(O)c1)OCc1ccccc1"
  pIC50: 4.47
- compound: "O=C(Nc1ccc(C(=O)Nc2cccc(C(F)(F)F)c2)c(O)c1)OCc1ccccc1"
  pIC50: 3.51
- compound: "COc1ccccc1NC(=O)c1ccc(NC(=O)OCc2ccccc2)cc1O"
  pIC50: 4.65

Summary for this compound, O=C(Nc1ccc(C(=O)Nc2cc(F)ccc2F)c(O)c1)OCc1ccccc1 : pIC50 is 3.80

Summary for this compound, O=C(Nc1ccc(C(=O)Nc2cc(F)cc(F)c2)c(O)c1)OCc1ccccc1 : pIC50 is 3.68

Summary for this compound, O=C(Nc1ccc(C(=O)Nc2cccc(Cl)c2)c(O)c1)OCc1ccccc1 : pIC50 is 3.69

Summary for this compound, O=C(Nc1ccc(C(=O)Nc2cc(F)c(F)c(F)c2)c(O)c1)OCc1ccccc1 : pIC50 is 3.74

Summary for this compound, COc1cccc(NC(=O)c2ccc(NC(=O)OCc3ccccc3)cc2O)c1 : pIC50 is 3.44

---

Molecular target: BChE from equine serum (Equus caballus, UniProt P81908)
Construct: BChE from equine serum; purchased Sigma, St. Louis, MO, USA; host or cells: equine serum
Assay: In vitro BChE inhibition, modified Ellman's method
Type: biochemical
result-type: IC50 (µM)
Write the answer as a number in µM, unit excluded.

Some entries whose results are on file:
- smiles-data: "O=C(Nc1ccc(C(=O)Nc2ccc(C(F)(F)F)cc2)c(O)c1)OCc1ccccc1"
  IC50 [µM]: 137
- smiles-data: "O=C(Nc1ccc(C(=O)Nc2c(F)cc(F)cc2F)c(O)c1)OCc1ccccc1"
  IC50 [µM]: 31
- smiles-data: "O=C(Nc1ccc(C(=O)Nc2cc(Cl)ccc2Cl)c(O)c1)OCc1ccccc1"
  IC50 [µM]: 141

Summary for this compound, O=C(Nc1ccc(C(=O)Nc2ccc(F)cc2F)c(O)c1)OCc1ccccc1 : IC50 is 180

---

// reported pIC50 per item
Target: AChE from electric eel (Electrophorus electricus) (Electrophorus electricus)
Construct: purchased Sigma, St. Louis, MO, USA
Assay: In vitro AChE inhibition, modified Ellman's method
Type: biochemical
Lab note: report pIC50 as minus log10 of the concentration in molar units, number only.

Some entries whose results are on file:
- compound: "O=C(Nc1ccc(C(=O)Nc2ccccc2Cl)c(O)c1)OCc1ccccc1 [Compound 9]"
  target-under-test: "AChE from electric eel (Electrophorus electricus) (Electrophorus electricus)"
  pIC50: 4.38
- compound: "O=C(Nc1ccc(C(=O)Nc2cc(Cl)ccc2Cl)c(O)c1)OCc1ccccc1 [Compound 22]"
  target-under-test: "AChE from electric eel (Electrophorus electricus) (Electrophorus electricus)"
  pIC50: 4.00
- compound: "O=C(Nc1ccc(C(=O)Nc2ccccc2F)c(O)c1)OCc1ccccc1 [Compound 6]"
  target-under-test: "AChE from electric eel (Electrophorus electricus) (Electrophorus electricus)"
  pIC50: 4.30
- compound: "O=C(Nc1ccc(C(=O)Nc2ccc(Cl)c(Cl)c2)c(O)c1)OCc1ccccc1 [Compound 24]"
  target-under-test: "AChE from electric eel (Electrophorus electricus) (Electrophorus electricus)"
  pIC50: 4.24

Summary for this compound, COc1ccccc1NC(=O)c1ccc(NC(=O)OCc2ccccc2)cc1O [Compound 2] : pIC50 is 4.30

Summary for this compound, O=C(Nc1ccc(C(=O)Nc2c(Br)cc(Br)cc2Br)c(O)c1)OCc1ccccc1 [Compound 32] : pIC50 is 4.18

Summary for this compound, O=C(Nc1ccc(C(=O)Nc2cc(F)ccc2F)c(O)c1)OCc1ccccc1 [Compound 18] : pIC50 is 4.23

Summary for this compound, O=C(Nc1ccc(C(=O)Nc2ccc(F)cc2)c(O)c1)OCc1ccccc1 [Compound 8] : pIC50 is 4.32

Summary for this compound, O=C(Nc1ccc(C(=O)Nc2ccccc2)c(O)c1)OCc1ccccc1 [Compound 1] : pIC50 is 4.19
